Data origin: ChEMBL document CHEMBL1201862

- Test system: RPMI-8226
- ASSAY: NCI tumour cell line growth inhibition, 48 h
The source made the active and inactive calls. Cut-off read from the data, not from the text of the source: active = GI50 up to about 1.1 µM and inactive = higher.
Answer with one of the outcomes active, inactive

Tell me the recorded outcome of this test for CCOC(=O)/C(C(=O)Nc1ccc(F)cc1)=C(/N)N1CCCC1 . inactive

Outcome logged for N=C1N(/N=C/c2ccccn2)/C(=N\c2ccccc2)C(=S)N1c1ccccc1 in this assay: inactive

Check the results log: what was the call for COC(=O)[C@@H]1C(=O)O[C@@H](c2ccc3c(c2)OCO3)[C@@H]1C(=O)OC.COC(=O)[C@H]1C(=O)O[C@@H](c2ccc3c(c2)OCO3)[C@@H]1C(=O)OC ? inactive

Per the records of this test, what outcome belongs to COC(=O)C1[C@H](c2cc(OC)c(OC)c(OC)c2)OC(=O)C1(C(=O)OC)C(=O)c1ccc2c(c1)OCO2 (stereo not given in full) ? inactive

Write down the call the test reported for this compound. Item: O=C1Nc2ccccc2/C1=N/NC(=S)N1CCCCCC1 active

Given CC(C)=Cc1cc2c(cc1O)CCC1C2CC[C@@]2(C)C1CC[C@@H]2O (stereo not given in full) , state the outcome it received in this test. inactive

Which outcome did this test record for the compound Clc1ccc(Nc2nnc(CCCCCCCCc3nnc(Nc4ccc(Cl)cc4)o3)o2)cc1 ? inactive

Each compound tested received a call. Report the one for COC(=O)NCCc1n[nH]c2c1C(=O)C=C(N1CCOCC1)C2=O . inactive

Could you check what this test reported for c1ccc(C(C2=Nc3cccc4cccc(c34)N2)c2ccccc2)cc1 ? inactive

Can you look up the reported call for CC(C)(C)c1cc(C(C)(C)C)c2sc(=O)oc2c1O for me? inactive

Please state the recorded outcome for this compound: CCOC(=O)c1csc(-c2cn(C)c3c2C(=O)C(OC)=CC3=O)n1 inactive

How did this test come out for CCn1c2c(c3ccccc3c1=O)C(=O)c1ccccc1-2 ? inactive

Tell me the recorded outcome of this test for O=C(CCc1nnc2s/c(=C\c3ccccc3)c(=O)n12)Nc1cc(Cl)ccc1Cl . inactive

Any idea what this test logged for O=[N+]([O-])c1cccc(/C=N/N=c2\ccc3ccccc3[nH]2)c1O ? inactive

How was CC(C)(C)OC(=O)N(CCCCNC(=O)OCc1ccccc1)CCCNC(=O)OCc1ccccc1 classified in this test? inactive

Tell me the recorded outcome of this test for CCOC(=O)c1sc2nc(SC)nc(Nc3ccc4c(c3)OCO4)c2c1N . inactive

Could you please tell me the result logged for CC(C)=CCC/C(C)=C/CC/C(C)=C/CC/C=C(\C)CC/C=C(\C)CCC1SC1(C)C (stereo not given) in this assay? inactive

Dear colleague, could you share the recorded outcome for CN(C)/C=C/C=C(/C=N/S(=O)(=O)C(F)(F)F)C1C=CN(S(=O)(=O)C(F)(F)F)C=C1 when you have a moment? inactive

Would you mind telling me which call this test gave CC(=O)OC1CCn2c1nc1cc([N+](=O)[O-])c(C)cc12 (stereo not given) ? inactive

Please let me know the test result on file for CCCC(C(=O)OC)C1N/C(=N/C#N)N(Cc2ccccc2)C1=O (stereo not given) . inactive

----------
- Tested on: SR
- ASSAY: NCI tumour cell line growth inhibition, 48 h
Activity calls are given as the source filed them. Rule as the data show it: active = GI50 up to about 1.1 µM and inactive = higher.
One label from this list, please: true for active, false for inactive

Recorded call for N#Cc1c(O)cc(=O)n2c1[nH]c1ccccc12 ? false

State the result this test recorded for CN(c1ccccc1Cl)S(=O)(=O)c1ccccc1[N+](=O)[O-] . false

So what was the verdict on COc1nc(C#CC2(O)CCCCC2)nc(OC)n1 in this test? false

Record lookup: outcome of this test for CSc1nc(=S)[nH]c2[nH]nc(C)c12 ? false

Record request — test call for O=C1Nc2ccc([N+](=O)[O-])cc2/C1=N/NC(=S)Nc1ccccc1 false

# fetch the recorded call for COc1ccc2[nH]c3c(C)c4ccnc(NCCCN(C)CCCNc5ccc6nnn7c8ccccc8c(=O)c5c67)c4c(C)c3c2c1 here true

I would be grateful if you could indicate the recorded call for COc1ccc(-c2nc3ccccc3s2)cc1OC . false

GET /call?item= Cc1cc(S(=O)(=O)Nc2nc(N)n(-c3ccccc3)n2)c(S)cc1Cl returns the recorded outcome of this test. false

Identify the outcome logged in this assay for the compound shown: CC1(C)OC(=O)C(Cc2ccccc2)(Cc2ccccc2)C(=O)O1 false

Hi team, can someone confirm the assay call for COC(=O)c1c(C#C[Si](C)(C)C)c(C#C[Si](C)(C)C)c(C#C[Si](C)(C)C)c(C#C[Si](C)(C)C)c1C(=O)OC ? false

What call does the record list for CC1=NN(c2cc(Cl)c(S(=O)(=O)O)cc2Cl)C2(C1)C(Cl)C(=O)N2c1nc2ccccc2s1 (centres undefined) ? false

Hi, sorry to bother you, what did the test record for Cn1c(-c2ccccc2)cc(-c2ccc3c(c2)OCO3)c1-c1ccsc1 ? false

Call for entry O=C(CC(C(=O)c1ccsc1)c1ccccc1)c1cccs1 (centres undefined) : false

Call for entry CN(Cc1cnc2nc(N)nc(N)c2n1)c1ccc(C(=O)NC(CCC(=O)NCC(P(=O)(O)O)P(=O)(O)O)C(=O)O)cc1 (centres undefined) : true

What is the recorded call for this compound in the test? COc1ccccc1NC(=S)NN=C(C)c1cccc(C(C)=NNC(=S)Nc2ccccc2OC)n1 false

What is the recorded call for this compound in the test? CC[C@](O)(CC(=O)O[C@H]1C(=O)O[C@@H]2C[C@H]3C(C)=CC(=O)[C@@H](O)[C@]3(C)[C@H]3[C@@]4(O)OC[C@]32[C@@H]1[C@@H](C)[C@H]4O)C(C)C true

Kindly provide the recorded test outcome for the following compound: COc1cccc(/N=N/C(=N/NC(=O)c2ccc(C)cc2)c2ccc(N(CCC#N)CCC#N)cc2OC)c1 false

Assay result, entry O=C1CCCSCCCC(=O)CCCSCCC1 — outcome? false

Short answer needed: outcome of this test for COc1cc(S(=O)(=O)Nc2ccc(-c3csc(N4C(=O)C(Cl)C4c4cccs4)n3)cc2)ccc1Cl (centres undefined) ? false
